Assay: E. coli DRC41 culture turbidity changes, primary screen, E. coli filamentation inducer project, strain DRC41, OD650, 48 h (AID 1152);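 also: E. coli MC1000 strain DRC41 lacking acrAB efflux pump and sulA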
Details: E. coli DRC41 (acrAB sulA), higher = more signal, called active from +8 up or from −8 down
Label true when z-score >= 0.08; otherwise false.

Prompt: Determine whether measured z-score meets or exceeds 0.08 for CCOC(=O)[C@H]1C/C=C/C[C@H](C(=O)OCC)C(=O)O[C@H]2[C@@H](OC)O[C@H](CO)[C@@H](OC(=O)CCc3ccccc3)[C@@H]2OC1=O
Response: false

Prompt: Evaluate COc1ccc(NN2C(C(O)c3ccco3)C=CC3C(=O)N(C4CCCCC4)C(=O)C32)cc1 (stereo not given) : z-score at minimum 0.08?
Response: false

Prompt: Would you say O=C1C2C=CC(C(O)c3cc(C(F)(F)F)cc(C(F)(F)F)c3)N(Nc3ccc([N+](=O)[O-])cc3)C2C(=O)N1c1ccccc1 (stereo not given) shows z-score at minimum 0.08?
Response: false

Prompt: Given the entry O=C1C[C@@](C(=O)NCC(F)(F)F)(c2ccc([N+](=O)[O-])cc2)[C@@H](c2ccc(CO)cc2)N1C1CCCCC1 , answer whether its z-score meets or surpasses 0.08.
Response: false

Prompt: // inclusive: z-score at least 0.08? input: Cc1ccc(S[C@]2(C(=O)NC(C)C)CC(=O)N(Cc3ccccc3C(F)(F)F)[C@@H]2c2ccc(CO)cc2I)cc1
Response: true

Prompt: Please indicate if the recorded z-score for C[C@]12C(=O)N(CCCCCCO)[C@@H]3C(=O)N(c4ccc(Cl)cc4)CC=CC31O[C@@H]1/C=C\CCCOC(=O)C12 (stereo not given in full) meets or exceeds 0.08.
Response: true

Prompt: Identify whether the reported z-score of the following compound is 0.08 or greater: CC(C)(C)OC(=O)CC[C@]1(C(=O)O)N=C(c2ccc(OCCCO)cc2)O[C@H]1c1ccccc1CN=[N+]=[N-]
Response: true

Prompt: Decide: is the reported value of z-score for CC(C)(C)OC(=O)CC[C@@]1(C(=O)O)N=C(c2ccc(OCCCO)cc2)O[C@@H]1c1ccccc1 equal to or greater than 0.08?
Response: false

Prompt: Threshold query (z-score >= 0.08) on CCOC(=O)C[C@H]1[C@H](OC(=O)c2ccc(-c3ccccc3)cc2)[C@@H](NC(=O)C2CCCCC2)c2cc(OCCCO)ccc2N1C(=O)c1ccccc1
Response: false

Prompt: Please check the record COc1cc(CO)cc(I)c1O[C@H]1C=C(C(=O)NCCO)C[C@@H](N(Cc2ccc(F)cc2)C(=O)C2CCCO2)[C@@H]1O (stereo not given in full) and state if its z-score is at or above 0.08.
Response: true

Prompt: Confirm if z-score reported for the compound CC(C)(C)OC(=O)CC[C@@]1(C(=O)O)N=C(c2ccc(OCCCO)cc2)O[C@@H]1c1ccccc1CN=[N+]=[N-] is 0.08 or above.
Response: true

Prompt: Check if z-score >= 0.08 (inclusive). Item: CCCCN1CC=CC23O[C@@H]4/C=C\CCC(C)OC(=O)C4[C@H]2C(=O)N(CCCCCCO)[C@@H]3C1=O (stereo not given in full)
Response: true

Prompt: Could you tell me if the measured z-score of CN1C(=O)C2C(C1=O)C1C=C(c3ccc(CO)cc3)C2C(c2cccs2)N1Cc1cccc(OC(F)(F)F)c1 (stereo not given) reaches 0.08 or more?
Response: false

Data origin: PubChem BioAssay
